- TESTED_TARGET: Human ST2-fc (human) (UniProt Q01638)
- RUN_DESCRIPTION: competition ELISA, coated ST2-fc, competitor IL33-his
Kindly state Maximum inhibition rate for each of the entries shown.
Supply the numeric figure in %, leaving out any unit text.

Exam item: Fill blank: measured Maximum inhibition rate of the binder 5887-41-H1L1 (antibody, human IgG4 S228P, kappa, V domains shown) VH: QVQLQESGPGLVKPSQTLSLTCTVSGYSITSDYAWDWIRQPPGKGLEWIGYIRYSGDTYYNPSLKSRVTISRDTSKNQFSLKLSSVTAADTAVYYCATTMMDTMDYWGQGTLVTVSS VL: DIVLTQSPASLAVSPGQRATITCRASKSVSTSGNSYMHWYQQKPGQPPKLLIYLASNLESGVPARFSGSGSGTDFTLTINPVEANDAANYYCQHSREFPLTFGQGTKLEIKR is ____.
Marked response: 92.4

Exam item: How about 5888-379-H1L1 (antibody, human IgG4 S228P, kappa, V domains shown) VH: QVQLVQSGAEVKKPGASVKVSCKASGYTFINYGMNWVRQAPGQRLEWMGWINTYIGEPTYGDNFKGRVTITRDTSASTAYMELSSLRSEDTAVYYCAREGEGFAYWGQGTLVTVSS VL: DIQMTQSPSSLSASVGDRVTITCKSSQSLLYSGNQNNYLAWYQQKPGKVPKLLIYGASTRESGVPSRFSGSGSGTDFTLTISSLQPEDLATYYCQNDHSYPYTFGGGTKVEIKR ?
Marked response: 89.5

Exam item: How about 5888-153-H0L1 (antibody, human IgG4 S228P, kappa, V domains shown, Humanized antibody) VH: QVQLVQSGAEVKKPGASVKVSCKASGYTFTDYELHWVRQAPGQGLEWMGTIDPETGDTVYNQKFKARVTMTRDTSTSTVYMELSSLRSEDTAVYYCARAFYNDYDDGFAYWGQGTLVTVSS VL: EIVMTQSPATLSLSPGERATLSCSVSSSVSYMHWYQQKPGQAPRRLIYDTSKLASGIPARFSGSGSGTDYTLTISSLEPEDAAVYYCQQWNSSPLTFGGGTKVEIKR ?
Marked response: 94.3

Exam item: How about 5888-116-H3L1 (antibody, human IgG4 S228P, kappa, V domains shown) VH: QVQLVQSGAEVKKPGASVKVSCKASGYTFTDSEMYWVRQAPGQGLEWMGAIDPETGDTAFNQKFKGRVTMTADKSTSTAYMELSSLRSEDTAVYYCTRAFDNDNDDAFAYWGQGTMVTVSS VL: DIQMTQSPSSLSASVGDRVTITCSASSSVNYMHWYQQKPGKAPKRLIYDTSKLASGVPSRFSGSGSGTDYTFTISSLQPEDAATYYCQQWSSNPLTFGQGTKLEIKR ?
Marked response: 90.7

Exam item: How about 5888-153-H1L0 (antibody, human IgG4 S228P, kappa, V domains shown) VH: QVQLVQSGAEVKKPGASVKVSCKASGYTFTDYELHWVRQAPGQGLEWMGTIDPETGDTVYNQKFKARVTMTADKSTSTAYMELSSLRSEDTAVYYCTRAFYNDYDDGFAYWGQGTLVTVSS VL: EIVLTQSPATLSLSPGERATLSCSVSSSVSYMHWYQQKPGQAPRLLIYDTSKLASGIPARFSGSGSGTDFTLTISSLEPEDFAVYYCQQWNSSPLTFGGGTKVEIKR ?
Marked response: 92.5

Exam item: How about 5888-357-H1L1 (antibody, human IgG4 S228P, kappa, V domains shown) VH: QVQLVQSGAEVKKPGASVKVSCKASGYRFTDSEMHWVRQAPGQGLEWMGTIDPETGGTVYNQKFKGRVTMTADRSTSTVYMELSSLRSEDTAVYYCTRAFYNDFDDGFAYWGQGTMVTVSS VL: EIVMTQSPATLSLSPGERATLSCSASTSVSYMHWYQQKPGQAPRRLIYDTSKLASGIPARFSGSGSGTDYTLTISSLEPEDAAVYYCQQWSSNPLTFGGGTKVEIKR ?
Marked response: 93.2

Exam item: How about 5888-153-H1L2 (antibody, human IgG4 S228P, kappa, V domains shown) VH: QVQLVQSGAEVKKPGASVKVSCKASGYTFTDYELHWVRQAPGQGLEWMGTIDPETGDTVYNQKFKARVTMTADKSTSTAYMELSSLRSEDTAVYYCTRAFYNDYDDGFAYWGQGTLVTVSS VL: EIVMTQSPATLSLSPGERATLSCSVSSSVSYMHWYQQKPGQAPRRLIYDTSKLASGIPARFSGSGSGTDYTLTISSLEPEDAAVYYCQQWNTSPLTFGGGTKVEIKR ?
Marked response: 94

Exam item: How about 5888-153-H3L1 (antibody, human IgG4 S228P, kappa, V domains shown, Humanized antibody) VH: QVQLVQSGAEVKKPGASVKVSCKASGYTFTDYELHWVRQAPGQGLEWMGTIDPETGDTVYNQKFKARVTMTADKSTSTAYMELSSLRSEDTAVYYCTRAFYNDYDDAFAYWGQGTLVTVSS VL: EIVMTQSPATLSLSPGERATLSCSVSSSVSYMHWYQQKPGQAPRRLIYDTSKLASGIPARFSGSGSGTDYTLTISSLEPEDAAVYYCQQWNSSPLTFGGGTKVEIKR ?
Marked response: 93.7

Exam item: How about 5887-537-H1L0 (antibody, human IgG4 S228P, kappa, V domains shown) VH: QVTLKESGPTLVKPTQTLTLTCTFSGFSLSTSGMGVGWIRQPPGKALEWLAHIWWDDVKQYNPALKSRLTITKDTSKSQVVLTMTNMDPVDTATYYCARIGGDYDYFDFWGQGTTVTVSS VL: DIVLTQSPASLAVSPGQRATITCRASESVEYSGTSLMQWYQQKPGQPPKLLIYVASNVESGVPARFSGSGSGTDFTLTINPVEANDTANYYCQQSRKVPWTFGQGTKLEIKR ?
Marked response: 88.3

Exam item: How about 5888-153-H3L2 (antibody, human IgG4 S228P, kappa, V domains shown, Humanized antibody) VH: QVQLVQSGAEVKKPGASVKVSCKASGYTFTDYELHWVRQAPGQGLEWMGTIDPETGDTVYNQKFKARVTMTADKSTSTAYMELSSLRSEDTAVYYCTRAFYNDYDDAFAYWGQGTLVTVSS VL: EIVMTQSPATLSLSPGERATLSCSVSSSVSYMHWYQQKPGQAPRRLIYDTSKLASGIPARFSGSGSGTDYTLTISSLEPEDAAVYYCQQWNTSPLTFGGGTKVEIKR ?
Marked response: 93.7
